# Tested on: alpha-amylase
# Experiment: in vitro alpha-amylase inhibition (AAI) assay, Ultra-Amylase EnzChek Assay Kit
Listed below: IC50 values for each entry.

>  <Compound>
COc1cc2oc(-c3ccc(O)c(O)c3)c(OC)c(=O)c2c(O)c1O[C@@H]1O[C@H](CO)[C@@H](O)[C@H](O)[C@H]1O

>  <IC50 / µM>
12.7

$$$$
>  <Compound>
CCCCCC(=O)OCC1OC(Oc2c(O)cc3oc(-c4ccc(O)c(O)c4)c(O)c(=O)c3c2O)C(O)C(O)C1O (stereo not drawn) [Compound 4, minutaside A]

>  <IC50 / µM>
9.2

$$$$
>  <Compound>
O=c1c(O)c(-c2ccc(O)c(O)c2)oc2cc(OC3OC(CO)C(O)C(O)C3O)c(O)c(O)c12 [Compound 2, quercetagetin-7-O-β-D-glucopyranoside]

>  <IC50 / µM>
7.8

$$$$
>  <Compound>
COc1c(OC2OC(CO)C(O)C(O)C2O)cc2oc(-c3ccc(O)c(O)c3)c(O)c(=O)c2c1O [Compound 5, patuletin-7-O-β-D-glucopyranoside]

>  <IC50 / µM>
8.1

$$$$
>  <Compound>
COc1ccc(-c2oc3c(O)c(O)c(OC)c(O)c3c(=O)c2OC)cc1O

>  <IC50 / µM>
14.9

$$$$
>  <Compound>
COc1c(O)cc2oc(-c3ccc(O)c(O)c3)c(O)c(=O)c2c1O

>  <IC50 / µM>
13.6

$$$$
>  <Compound>
COc1cc2oc(-c3ccc(O)c(O)c3)c(O)c(=O)c2c(O)c1O[C@@H]1O[C@H](CO)[C@@H](O)[C@H](O)[C@H]1O

>  <IC50 / µM>
9.7

$$$$
>  <Compound>
COc1c(O)cc2oc(-c3ccc(O)c(O)c3)c(OC)c(=O)c2c1O

>  <IC50 / µM>
21.7

$$$$
>  <Compound>
O=C(C=Cc1ccc(O)c(O)c1)OCC1OC(Oc2c(O)cc3oc(-c4ccc(O)c(O)c4)c(O)c(=O)c3c2O)C(O)C(O)C1O (stereo not drawn)

>  <IC50 / µM>
10.1

$$$$
>  <Compound>
COc1c(-c2ccc(O)c(O)c2)oc2c(O)c(O)c(O[C@@H]3O[C@H](CO)[C@@H](O)[C@H](O)[C@H]3O)c(O)c2c1=O

>  <IC50 / µM>
10.8

$$$$
>  <Compound>
COc1c(-c2ccc(O)c(O)c2)oc2cc(O)cc(O)c2c1=O

>  <IC50 / µM>
26.9

$$$$
>  <Compound>
O=c1c(O)c(-c2ccc(O)c(O)c2)oc2cc(O)c(OC3OC(CO)C(O)C(O)C3O)c(O)c12 [Compound 3, quercetagetin-6-O-β-D-glucopyranoside]

>  <IC50 / µM>
8.9

$$$$
